Molecular target: T1, human BCMA expressed on the cell surface (human, UniProt Q02223 1-184)
T1 construct: The same molecule is used here for hBCMA-CHO GS cells and for the endogenous BCMA of the myeloma lines; also called Human BCMA CHO-S cell; H929
T1 sequence: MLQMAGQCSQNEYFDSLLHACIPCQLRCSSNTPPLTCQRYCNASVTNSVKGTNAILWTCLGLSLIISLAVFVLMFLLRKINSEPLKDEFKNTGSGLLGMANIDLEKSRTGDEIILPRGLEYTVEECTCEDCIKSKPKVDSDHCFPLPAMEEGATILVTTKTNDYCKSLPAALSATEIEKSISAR
Test: flow cytometry, 10 nM antibody on H929 cells
Assign class by FON, Fold Over Negative: not lower than 30 fold means YES; lower than 30 fold means NO.

Please review the entries below; each comes with its answer.
1) antibody ADI-38497 (antibody, V domains shown) VH: QLQLQESGPGLVKPSETLSLTCTVSGGSIVSSSYYWTWIRQPPGKGLEWIGSISIAGSTYYNPSLKSRVTISVDTSKNQFSLKLSSVTAADTAVYYCARDRGDQILDVWSQGTMVTVSS VL: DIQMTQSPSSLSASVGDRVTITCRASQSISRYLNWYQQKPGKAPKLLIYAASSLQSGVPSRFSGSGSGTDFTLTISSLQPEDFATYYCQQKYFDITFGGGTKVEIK = NO
2) antibody ADI-38491 (antibody, V domains shown) VH: QLQLQESGPGLVKPSETLSLTCTVSGGSIVSSSYYWTWIRQPPGKGLEWIGSISIAGSTYYNPSLKSRVTISVDTSKNQFSLKLSSVTAADTAVYYCARDRGDTILDVWGQGTMVTVSS VL: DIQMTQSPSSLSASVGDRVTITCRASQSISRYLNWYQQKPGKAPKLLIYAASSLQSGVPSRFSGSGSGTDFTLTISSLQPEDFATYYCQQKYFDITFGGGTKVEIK = NO

### Prompt For this binder, is measured FON, Fold Over Negative 30 fold or higher? antibody ADI-38481 (antibody, V domains shown) VH: QVQLVQSGAEVKKPGSSVKVSCKASGGTFSNDVISWVRQAPGQGLEWMGVIIPIFGIANYAQKFQGRVTITADESTSTAYMELSSLRSEDTAVYYCARGRGYYSSWLLDIWGQGTMVTVSS VL: DIQMTQSPSSLSASVGDRVTITCQASQDITNYLNWYQQKPGKAPKLLIYDASNLETGVPSRFSGSGSGTDFTFTISSLQPEDIATYYCQQAFDLITFGGGTKVEIK
### Response YES

### Prompt # bool: FON, Fold Over Negative of anti-BCMA parent antibody ADI-34861 (antibody, V domains shown, Tested as IgG (captured by anti-human Fc probe)) VH: QLQLQESGPGLVKPSETLSLTCTVSGGSISSSSYYWGWIRQPPGKGLEWIGSISYSGSTYYNPSLKSRVTISVDTSKNQFSLKLSSVTAADTAVYYCARDRGDTILDVWGQGTMVTVSS VL: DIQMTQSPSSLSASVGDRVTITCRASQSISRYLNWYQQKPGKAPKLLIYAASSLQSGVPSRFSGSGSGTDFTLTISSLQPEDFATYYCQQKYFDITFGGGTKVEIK >= 30 fold
### Response NO

### Prompt For this binder, is measured FON, Fold Over Negative 30 fold or higher? antibody ADI-38484 (antibody, V domains shown) VH: QVQLVQSGAEVKKPGSSVKVSCKASGGTFSNDVISWVRQAPGQGLEWMGVIIPIFGIANYAQKFQGRVTITADESTSTAYMELSSLRSEDTAVYYCARGRGYYSSWLHDIWGQGTMVTVSS VL: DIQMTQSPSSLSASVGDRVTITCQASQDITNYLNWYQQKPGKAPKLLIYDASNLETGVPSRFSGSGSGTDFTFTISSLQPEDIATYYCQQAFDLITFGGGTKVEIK
### Response YES
